Assay: protein stability index of a GFP-peptide fusion (yeast GPS) (PSI 1-4); higher = more stable; sorted into four equal gates, so the index is relative within each strain
Settings: doa10∆
Classification by protein stability index | ranges: 0 (below 2), 1 (2 to below 3), 2 (3 or more)

Answered cases to consult:
>>> print(df.to_string())
                     query_sequence  class_label
0          HIVQDCTLTADGAYALS [ASC1]            1
1         TCPGLSLTDVAFFTYDA [ECM29]            2
2          GHRADVGGQFSKVQFDA [REC8]            2
3         NTLLVTGPFKVNGVPLR [RPL6B]            1
4  ELTKTKSSLYSAQDLLD [YIL149C/MLP2]            1

Qu. Sort into band: YLSGAIPNQEVLQYSDW [YDL116W/NUP84]
Ans. 1

Qu. Sort into band: NTLIPESSLTISLYFND [ECM29]
Ans. 0

Qu. Sort into band: ANVNASAMPAPYMPYYY [DSN1]
Ans. 1

Qu. Sort into band: LKVYKVGDIVDIKANGS [RPL21A]
Ans. 1

Qu. Sort into band: VECAQHCIDYLRKNKLG [SMC4]
Ans. 0

----------
Assay: protein stability index of a GFP-peptide fusion (yeast GPS) (PSI 1-4); higher = more stable; sorted into four equal gates, so the index is relative within each strain
Settings: san1∆
measured-quantity: protein stability index
Give bare numbers.

Recorded protein stability index, per entry:
>>> df
                     query_sequence  measured_number
0  QTLSEKEYQCSAVIIDE [YIL149C/MLP2]             3.15
1          LVEKVYARFKNDFFPGE [ITC1]             3.05
2         PFLNETKPGVYYVPYSK [RPC82]             3.03
3         KTQLGSTMTEPVKQSFI [GAL11]             2.56
4          AFALAKEKAPTIIFIDE [RPT5]             2.83
5          KIMVAEWYLSHLCSGIL [SRB8]             1.24
6          IASLERELILAKKQNYK [YCG1]             2.14
7          IPPTFDKGAVGPNNFIW [MED4]             2.77

# per-item lookup of protein stability index; items listed below
1. DGFDPRGNIKVMFATNR [RPT1]
2. IFFDEIDAVGGARFDDG [RPT1]
3. SKLSEHLNHYILLRYHH [YCG1]
4. SYTFRSEKGLLSATQFT [FAS1]
5. KSKREEEAKSVLPAATK [ARP9]
6. GRLDRKVEIPLPNEAGR [RPT4]

Ans.
[3.26, 3.24, 1.82, 2.84, 1.29, 3.11]

# per-item lookup of protein stability index; items listed below
1. AASLGDMVMATVKKGKP [RPL23A]
2. PAHTVIIKGTDVYSPEK [BRR2]
3. ASVVPSASSLVITALKE [RPL12A]
4. VSNILSAFKFIHTQLSE [YJL039C/NUP192]
5. NSILSVRDPWSIDFRTY [SRB2]
6. NIERKQTRKEYNTSILE [SIN4]
7. LCKSATTKMWPTNCPLR [BRR2]
8. ESSLTISLYFNDILDEL [ECM29]

Ans.
3.5
2.54
2.12
1.47
2.48
3.05
2.58
2.38

# per-item lookup of protein stability index; items listed below
1. TMETKTLPEKKQFDSIF [SIR4]
2. GDVGKNHITEFPSIPLP [RPC31]

Ans.
1: 2.84; 2: 3.31

# per-item lookup of protein stability index; items listed below
1. QFTLYDRELNEVINQME [SMC3]
2. PKHSYLSGNPLTSVTND [SIR4]
3. STSVGWKYEDVVAKLED [RPL16B]

Ans.
2.94
3.17
2.48

# per-item lookup of protein stability index; items listed below
1. LSLVYEIGGSDLKESMV [ECM29]
2. MAKFLKAGKVAVVVRGR [RPL27A]
3. AIGTKRYDSNSGGEREI [RPT2]
4. SDEEENNNNKSINKNNK [SSN2]
5. AVYFADTSGLKISNSEF [SIN4]
6. DPPIIIFINYKQTADWL [PRP28]

Ans.
1: 3.36; 2: 1.57; 3: 3.39; 4: 2.72; 5: 3.1; 6: 1.9

# per-item lookup of protein stability index; items listed below
1. SASFSLKNGDKPHLLKF [RPL6B]
2. KKIENTMLENITLRGVE [RPO21]
3. EMVENSSENNQIILAYI [SRP68]
4. QRRTNNSGVGSAKGPEI [MED6]
5. HRLTLEDPVTVEYLTRY [PRE6]
6. NFESISARSSVHESLVT [SRB8]
7. LSEAWRCWKANIPWDVP [PRP8]
8. FSDKVNALWILVDLVSH [ITC1]

Ans.
1. 3.25
2. 2.98
3. 2.77
4. 3.23
5. 3.01
6. 2.17
7. 1.1
8. 1.35

# per-item lookup of protein stability index; items listed below
1. QESFINTMSAWVNMLLI [FAS2]
2. EGTSISVHLIECYKQLF [YCS4]
3. IFWGIRLAKSTENEIPN [BRR2]
4. NIKFLSKLEGTINKAVQ [ESC2]
5. GKELDSLDLNNLELGGL [PGD1]

Ans.
[2.08, 3.42, 1.18, 2.72, 2.99]

# per-item lookup of protein stability index; items listed below
1. IFVSILSDRANKNQDAF [ARP9]
2. LKLDKIIHVLTTMFENT [RGR1]
3. KIMQSISNKDVIFKIRD [SRB4]

Ans.
1. 2.53
2. 2.39
3. 3.22
